# System: Caco-2 human colon epithelial cells
# experimentalDetails: eGFP mRNA transfection, Caco-2 cells (96-well)
# Type: cell-based
# measurementContext: co-lipid DOPE, ratio 1/2; 150 ng eGFP mRNA; 24 h
Can you tell me Transfection efficiency (eGFP %) CaCO2 for the items I'm about to list?

**Q:** Item: CCCCCCCCCCCCCCCCCCC(CCCCCCCCCCCCCCCCC)C[n+]1ccn(C)c1.[Cl-] (stereo not drawn) Test system: Caco-2 human colon epithelial cells Read-out: Transfection efficiency (eGFP %) CaCO2 Value: ?
**A:** 5-15%

**Q:** Item: CCCCCCC/C=C\CCCCCCCCC(CCCCCCCCCCCCCC)[n+]1ccn(C)c1 (stereo not drawn) Test system: Caco-2 human colon epithelial cells Read-out: Transfection efficiency (eGFP %) CaCO2 Value: ?
**A:** 5-10%

**Q:** Item: CCCCCCCCCCCCCCCCCCC(CCCC(CCCCCCCCCCCCCC)CCCCCCCCCCCCCC)[n+]1ccn(C)c1.[Cl-] (stereo not drawn) Test system: Caco-2 human colon epithelial cells Read-out: Transfection efficiency (eGFP %) CaCO2 Value: ?
**A:** 40-45%

**Q:** Item: CCCCCCCCCCCCCCCCCCC(CCCCCCCCCCCCCCCCCC)CCCCC(CCC(C)CCCC(C)C)[n+]1ccn(CCCC)c1.[Cl-] (stereo not drawn) Test system: Caco-2 human colon epithelial cells Read-out: Transfection efficiency (eGFP %) CaCO2 Value: ?
**A:** 50-60%

**Q:** Item: CCCCCCCCCCCCCCCCC(CCCCCCCCCCCCCCCC)[n+]1ccn(C)c1.[Cl-] Test system: Caco-2 human colon epithelial cells Read-out: Transfection efficiency (eGFP %) CaCO2 Value: ?
**A:** 5-10%

**Q:** Item: CCCCCCCCCCCCCCCCCCC(CCCCC(CCCCCCCCCCCCCC)CCCCCCCCCCCCCC)[n+]1ccn(CCO)c1.[Cl-] (stereo not drawn) Test system: Caco-2 human colon epithelial cells Read-out: Transfection efficiency (eGFP %) CaCO2 Value: ?
**A:** 45-55%
